Test: NCI Yeast Anticancer Drug Screen. Data for the mlh1 rad18 strain (AID 175)
Details: S. cerevisiae mlh1 rad18 strain growth inhibition; at 50.0 µM; stronger effect = higher value
About 79,000 compounds went through this panel and 15% of them were active in at least one assay; those are over-represented in the sample as a whole.
Recorded Metric: growth inhibition (%)

>  <Compound>
O=C1OC2(c3ccc(O)cc3Oc3cc(O)ccc32)c2c1c(-c1ccccc1)c(-c1ccccc1)c(-c1ccccc1)c2-c1ccccc1

>  <Measured Value>
62.8

$$$$
>  <Compound>
COC1=CC(=O)C(O)=C/C1=C\C=C\c1ccccc1

>  <Measured Value>
96.8

$$$$
>  <Compound>
COc1cccc2c1C(=O)c1c(O)c3c(c(O)c1C2=O)C[C@@](O)(C(=O)CO)C[C@@H]3OC1CC(N)CC(C)O1 (some centres not stated)

>  <Measured Value>
92

$$$$
>  <Compound>
CN1c2ccccc2Sc2c1n[nH]c2-c1ccccc1

>  <Measured Value>
98.8

$$$$
>  <Compound>
COc1ccc(C=C(C(=O)c2ccccc2)C(=O)c2ccccc2)cc1

>  <Measured Value>
90.8

$$$$
>  <Compound>
O=C(Nc1ccc(Cl)cc1)Nc1nnc2nc(C(C(=O)/C=C/c3ccccc3)c3nc4nnc(NC(=O)Nc5ccc(Cl)cc5)n4[nH]c3=O)c(=O)[nH]n12

>  <Measured Value>
63.2

$$$$
>  <Compound>
Fc1ccc(NC2=NCCN=C(Nc3ccc(F)cc3)SS2)cc1

>  <Measured Value>
80.8

$$$$
>  <Compound>
COc1ccccc1Nc1nc(SC)ncc1SC

>  <Measured Value>
92.2

$$$$
>  <Compound>
O=C(COc1ccc(Cl)cc1)OCCO

>  <Measured Value>
-25.6

$$$$
>  <Compound>
Nc1nnc(CCC(=O)Nc2ccccc2Cl)o1

>  <Measured Value>
98.5

$$$$
>  <Compound>
O=C(O)CCCCCCCCC(=O)CCl

>  <Measured Value>
99.2

$$$$
>  <Compound>
Cc1ccc(S(=O)(=O)NNC(=O)c2sc(-c3nc(C)c(C(=O)NNS(=O)(=O)c4ccc(C)cc4)s3)nc2C)cc1

>  <Measured Value>
15

$$$$
